# Tested on: NOMO1
# measurement_description: cell viability relative to DMSO control; higher = less cytotoxic
# condition_description: RPMI 5 mM glucose + 10% FBS; 48 h; 0.00234 µM
Can you tell me cell viability for the items I'm about to list?
Give the quantity in %, number only.

Return value of cell viability for input NC\1=N\C(=O)N(\C=C1)[C@H]\2[C@H](O)[C@H](O)C(=C2F)\CO , no commentary.
112

Return value of cell viability for input CC(NCc1ccc2c(c1)[nH]/c(=N\C(=O)c1ccc(-c3cn[nH]c3)s1)n2CC(C)(C)O)C(C)(C)C (stereo not drawn) , no commentary.
104

Return value of cell viability for input O=c1[nH]cnc2c1ncn2[C@H]1CC[C@@H](CO)O1 , no commentary.
88.5

Return value of cell viability for input Cc1ccc(-c2ncn(-c3ccc(Nc4nccc(-c5cccc(N6CCOCC6)c5)n4)cc3)n2)cn1 , no commentary.
40

Return value of cell viability for input CN(C)C[C@@H]1CC[N]2C=C(C3=C2C=CC=C3)C/4=C(/C(=O)NC4=O)C5=C[N](CCO1)C6=C5C=CC=C6 , no commentary.
85.9

Return value of cell viability for input N[C@@H](CC(=O)N1CCn2c(nnc2C(F)(F)F)C1)Cc1cc(F)c(F)cc1F , no commentary.
97.4

Return value of cell viability for input C#C[C@]1(O)CC[C@H]2[C@@H]3CCc4cc(OC)ccc4[C@H]3CC[C@@]21C , no commentary.
124

Return value of cell viability for input C[C@@H]1CC[C@@]2(OC1)OC1CC3C4CC=C5CC(O)CCC5(C)C4CCC3(C)C1[C@@H]2C (stereo partly drawn) , no commentary.
87.3

Return value of cell viability for input Nc1nc(OCc2ccccc2)c2nc[nH]c2n1 , no commentary.
117

Return value of cell viability for input O=C(CCCCCCC(=O)Nc1ccccc1)NO , no commentary.
94

Return value of cell viability for input CN(C)CCN(Cc1ccc(Cl)cc1)c1ccccn1.Cl , no commentary.
90

Return value of cell viability for input OC1=CC=C(C=C1)\C2=C\C(=O)C3=C(O2)C=C(O)C=C3O , no commentary.
112

Return value of cell viability for input COc1cc([C@@H]2c3cc4c(cc3[C@@H](O[C@@H]3O[C@@H]5CO[C@@H](c6cccs6)O[C@H]5[C@H](O)[C@H]3O)[C@H]3COC(=O)[C@H]23)OCO4)cc(OC)c1O , no commentary.
85.6

Return value of cell viability for input Cc1c(C(=O)Nc2cccc(C(F)(F)F)c2)cc(-c2ccccc2)n1CCCN1CCOCC1 , no commentary.
105

Return value of cell viability for input CC(C)(C)NC(=O)[C@H]1CC[C@H]2[C@@H]3CC[C@H]4NC(=O)\C=C/[C@]4(C)[C@H]3CC[C@]12C , no commentary.
95.7

Return value of cell viability for input COc1cc(N[S+](=O)([O-])c2ccc(N)cc2)nc(OC)n1 , no commentary.
106

Return value of cell viability for input CN[S+](=O)([O-])CCc1ccc2[nH]cc(C3CCN(C)CC3)c2c1 , no commentary.
84.2

Return value of cell viability for input CN(C)CC/C=C1/c2ccccc2COc2ccc(CC(=O)O)cc21 , no commentary.
115

###

# Test system: SEM cells
# measurement_description: cell viability relative to DMSO control; higher = less cytotoxic
# condition_description: HPLM + 10% dialyzed FBS; 48 h; 0.569 µM
Can you tell me cell viability for the items I'm about to list?
Give the quantity in %, number only.

Return value of cell viability for input CC1COC2=C3N1\C=C(C(O)=O)/C(=O)C3=CC(=C2N4CCN(C)CC4)F (stereo unspecified) , no commentary.
128

Return value of cell viability for input CN[S+](=O)([O-])CCc1ccc2[nH]cc(C3CCN(C)CC3)c2c1 , no commentary.
91.8

Return value of cell viability for input N#CC(=C(/N)Sc1ccccc1N)/C(C#N)=C(\N)Sc1ccccc1N , no commentary.
111

Return value of cell viability for input CC(C)c1ccccc1Cc1cc(C(=O)Nc2ccc([S+](=O)([O-])c3ccccc3C(C)(C)C)cc2)c(O)c(O)c1O , no commentary.
109

Return value of cell viability for input C[N+](C)([O-])CCNc1ccc(NCC[N+](C)(C)[O-])c2c1C(=O)c1c(O)ccc(O)c1C2=O , no commentary.
69.7

Return value of cell viability for input CCNc1cc(NC2CCC(O)CC2)nc(Nc2ccc3c(ccn3Cc3ccccc3)c2)n1 (stereo unspecified) , no commentary.
124

Return value of cell viability for input CC(=O)[C@H]1CC[C@H]2[C@@H]3CCC4=CC(=O)CC[C@]4(C)[C@H]3CC[C@]12C , no commentary.
103

Return value of cell viability for input O=C1N\2CCC3=C([NH]C4=C3C=CC=C4)C2=N/C5=CC=CC=C15 , no commentary.
123

Return value of cell viability for input C[S+]([O-])c1ccc(-c2nc(-c3ccc(F)cc3)c(-c3ccncc3)[nH]2)cc1 (stereo unspecified) , no commentary.
86.9

Return value of cell viability for input CC(NCc1ccc2c(c1)[nH]/c(=N\C(=O)c1ccc(-c3cn[nH]c3)s1)n2CC(C)(C)O)C(C)(C)C (stereo unspecified) , no commentary.
24.9

Return value of cell viability for input Cc1c(C(=O)Nc2cccc(C(F)(F)F)c2)cc(-c2ccccc2)n1CCCN1CCOCC1 , no commentary.
111

Return value of cell viability for input NCC(=O)Nc1ccc(-n2nc(C(F)(F)F)cc2-c2ccc3c(ccc4ccccc43)c2)cc1 , no commentary.
129

Return value of cell viability for input C[C@@H]1C[C@H]2[C@@H]3CC\C4=C\C(=O)\C=C/[C@]4(C)[C@@]3(Cl)[C@@H](O)C[C@]2(C)[C@@]1(OC(=O)C5=CC=CO5)C(=O)CCl , no commentary.
53.2

Return value of cell viability for input C[C@@H]1CC[C@@]2(OC1)OC1CC3C4CC=C5CC(O)CCC5(C)C4CCC3(C)C1[C@@H]2C (stereo partly specified) , no commentary.
107

Return value of cell viability for input COc1cc(-c2nn(C3CCC(N4CCN(C(C)=O)CC4)CC3)c3ncnc(N)c23)ccc1NC(=O)c1cc2ccccc2n1C (stereo unspecified) , no commentary.
123

Return value of cell viability for input Cc1cc(O)c2c(c1)C(=O)c1cc(O)cc(O)c1C2=O , no commentary.
98.9

Return value of cell viability for input Oc1cc(O)cc(/C=C/c2ccc(O)c(O)c2)c1 , no commentary.
93.3

Return value of cell viability for input C=CCn1c(=O)c2cnc(Nc3ccc(N4CCN(C)CC4)cc3)nc2n1-c1cccc(C(C)(C)O)n1 , no commentary.
61.4

Return value of cell viability for input CC(C)(C)NC(=O)[C@@H]1CN(Cc2cccnc2)CCN1C[C@@H](O)C[C@@H](Cc1ccccc1)C(=O)N[C@H]1c2ccccc2C[C@H]1O.O=S(=O)(O)O , no commentary.
104

Return value of cell viability for input CN(C)c1ccc(Nc2nc(N)n(C(=O)c3c(F)cccc3F)n2)cc1 , no commentary.
97.1

Return value of cell viability for input O=C1NC(=O)/C(=C/c2cccc(C(F)(F)F)c2)S1 , no commentary.
100

###

Can you tell me cell viability for the items I'm about to list?
# Test system: SEM cells
# measurement_description: cell viability relative to DMSO control; higher = less cytotoxic
# condition_description: HPLM + 10% dialyzed FBS; 48 h; 0.00234 µM
Give the quantity in %, number only.

Return value of cell viability for input CCCCCCCCc1ccc(CCC(N)(CO)CO)cc1 , no commentary.
108

Return value of cell viability for input COC1=CC2=C(C=C1OC)[C@H]3[C@@H](CO2)OC4=C(C=CC5=C4\C=C/C(C)(C)O5)C3=O , no commentary.
97.1

Return value of cell viability for input CCCCN(CCCC)C(=O)CN1C[C@H](c2ccc3c(c2)OCO3)[C@@H](C(=O)O)[C@@H]1c1ccc(OC)cc1 , no commentary.
107

Return value of cell viability for input CC(C)c1ccccc1Cc1cc(C(=O)Nc2ccc([S+](=O)([O-])c3ccccc3C(C)(C)C)cc2)c(O)c(O)c1O , no commentary.
127

Return value of cell viability for input Cc1[nH]c(/C=C2\C(=O)Nc3ccc([S+](=O)([O-])Cc4c(Cl)cccc4Cl)cc32)c(C)c1C(=O)N1CCC[C@@H]1CN1CCCC1 , no commentary.
103

Return value of cell viability for input CN(C)c1ccc(Nc2nc(N)n(C(=O)c3c(F)cccc3F)n2)cc1 , no commentary.
118

Return value of cell viability for input CC1(C)CC(O)CC(C)(C)N1[O] , no commentary.
80.3

Return value of cell viability for input Nc1cc(c(cc1S(=O)(N)=O)S(N)(=O)=O)C(/Cl)=C(/Cl)Cl , no commentary.
124
